Assay: Cytotoxicity on HepAD38 cells by cytopathic effect
Format: cell-based, Human
Details: human, HepAD38 cells, CC50, reduction of viability of HepAD38 cells by 50%, CPE method (Table 2)
For each record, write down the corresponding CC50.
Answers are plain numbers, in µM.

Would you please look over these solved cases?
compound: O=C(COCCNC(=O)C(c1ccccc1)c1ccccc1)NC1CCN(S(=O)(=O)c2cc(C(=O)Nc3cc(F)c(F)c(F)c3)ccc2F)CC1 [HyT-S10]
scale_unit: µM
CC50: 20
--
compound: CC(C)Cc1ccc([C@H](C)C(=O)NCCOCC(=O)NC2CCN(S(=O)(=O)c3cc(C(=O)Nc4cc(F)c(F)c(F)c4)ccc3F)CC2)cc1 [HyT-S13]
scale_unit: µM
CC50: 11.6
--
compound: CC(C)(C)OC(=O)/N=C(\NCCC[C@H](NC(=O)OC(C)(C)C)C(=O)NCCOCC(=O)NC1CCN(S(=O)(=O)c2cc(C(=O)Nc3cc(F)c(F)c(F)c3)ccc2F)CC1)NC(=O)OC(C)(C)C [HyT-S15]
scale_unit: µM
CC50: 60
--
compound: CC(C)[C@@H]1CC[C@@H](C)C[C@H]1OCC(=O)NCCOCC(=O)NC1CCN(S(=O)(=O)c2cc(C(=O)Nc3cc(F)c(F)c(F)c3)ccc2F)CC1 [HyT-S14]
scale_unit: µM
CC50: 11.6

Consider the compound O=C(CC1c2ccccc2-c2ccccc21)NCCOCC(=O)NC1CCN(S(=O)(=O)c2cc(C(=O)Nc3cc(F)c(F)c(F)c3)ccc2F)CC1 [HyT-S11] . State its measured CC50.
34.6

// provenance: paper PMC12138108
